The origin of these recorded values is ChEMBL document CHEMBL2331317.

target: Aldo-keto reductase family 1 member C3 (Homo sapiens); test: Inhibition of His-tagged human AKR1C3 expressed in Escherichia coli BL21 (DE3) assessed as inhibition of reduction of non-fluorescent ketone probe to fluorescent alcohol after 1 hr by competitive fluorescence assay
Sequence (P42330 whole entry): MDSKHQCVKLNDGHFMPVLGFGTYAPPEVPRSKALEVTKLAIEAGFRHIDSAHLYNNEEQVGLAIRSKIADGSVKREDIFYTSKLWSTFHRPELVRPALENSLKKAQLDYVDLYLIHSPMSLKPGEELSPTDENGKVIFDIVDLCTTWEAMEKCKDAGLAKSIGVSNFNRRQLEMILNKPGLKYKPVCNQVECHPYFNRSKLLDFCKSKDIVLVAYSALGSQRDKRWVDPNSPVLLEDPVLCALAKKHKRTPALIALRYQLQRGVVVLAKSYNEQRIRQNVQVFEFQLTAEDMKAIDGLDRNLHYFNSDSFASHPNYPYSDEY
# log10(IC50) per record follows
Reminder: these figures are log10 of reported IC50, in µM before transformation.

Use the examples below as a reference point.
O=C1CCCN1c1ccc(S(=O)(=O)N2CCC[C@@H](O)C2)cc1 : 0.19
CC1CCCCN1S(=O)(=O)c1ccc(NC(=O)C(C)(C)C)cc1 (stereo not drawn) : 0.77
CC1CCCCN1S(=O)(=O)c1ccc(N2CCCCC2=O)cc1 (stereo not drawn) : 0.58
O=C1CCCN1c1ccc(S(=O)(=O)N2CCC[C@H](O)C2)cc1 : 0.95
CC1CCCN(S(=O)(=O)c2ccc(N3CCCC3=O)cc2)C1 (stereo not drawn) : -1.08
CC1CCCCN1S(=O)(=O)c1ccc(N2CCC2=O)cc1 (stereo not drawn) : 0.75

Query O=C1CCCN1c1ccc(S(=O)(=O)N2CCc3ccccc3C2)cc1 yields log10(IC50) of -1.28

Query CC(C)C(=O)Nc1ccc(S(=O)(=O)N2CCCCC2C)cc1 (stereo not drawn) yields log10(IC50) of 1.10

Query O=C1CCCN1c1ccc(S(=O)(=O)N2CCCCC2)cc1 yields log10(IC50) of -0.85

###

target: UniProt:P42330; assay: Inhibition of His-tagged human AKR1C3 expressed in Escherichia coli BL21 (DE3) assessed as inhibition of reduction of non-fluorescent ketone probe to fluorescent alcohol after 1 hr by competitive fluorescence assay
# pIC50 per record follows
Worth noting: pIC50 values are minus log10 of concentrations stated in mol/L.

CC1CCCCN1S(=O)(=O)c1ccc(N2CCCC2=O)cn1 (stereo unspecified) : 5.56
CC1CCN(S(=O)(=O)c2ccc(N3CCCC3=O)cc2)CC1 : 6.70
C[C@H]1CCC[C@H](C)N1S(=O)(=O)c1ccc(N2CCCC2=O)cc1 : 7.25
Cc1cc(S(=O)(=O)N2CCCCC2C)ccc1N1CCCC1=O (stereo unspecified) : 4.99
C[C@@H]1CN(S(=O)(=O)c2ccc(N3CCCC3=O)cc2)C[C@H](C)N1 : 4.67

Could you now consider this next compound?
Noted pIC50 for CC1CCCCN1S(=O)(=O)c1ccc(N2CCCS2(=O)=O)cc1 (stereo unspecified) , tested on UniProt:P42330: 5.28
